Experiment: reduced viability of SK-BR-3 breast cancer cells – cell-based, 24 h, human, pilot screen (AID 572);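 note: compound exposure lasted between 18 and 24 h rather than exactly 24 h; 100% = carrier-treated control wells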
Details: SK-BR-3 viability, CellTiter-Glo luminescence, at 10 µM, active compounds read low
Measured Property: viability (%)

compound=Cc1cccc(-n2ncc3c(N(CCO)CCO)ncnc32)c1 measurement_units=% reported_result=97
compound=O=C(Nc1ccncc1)c1cccc(F)c1 measurement_units=% reported_result=103
compound=Cc1ccc(S(=O)(=O)Cc2ccc(C(=O)N3CCN(Cc4ccccc4)CC3)o2)cc1 measurement_units=% reported_result=86.5
compound="O=C(O)CC(NC(=O)c1ccccc1NC(=O)c1ccccc1)C(=O)O (configuration not stated)" measurement_units=% reported_result=86.5
compound=Clc1ss/c(=N\c2ccccn2)c1Cl measurement_units=% reported_result=100
compound="CC1Cn2c(nnc2-c2ccc(F)cc2)S1 (configuration not stated)" measurement_units=% reported_result=112
compound=CCCn1c(=O)c(C(=O)NCc2ccccn2)c(O)c2ccccc21 measurement_units=% reported_result=78
compound=Cc1ccc(C)c(S(=O)(=O)n2cnc3ccccc32)c1 measurement_units=% reported_result=96.5
compound="CC(=O)NC(CCS(C)(=O)=O)C(=O)Nc1cccc(C)c1 (configuration not stated)" measurement_units=% reported_result=88.5
compound=Cc1ccccc1Cn1ccc(NC(=O)c2onc(C)c2Cl)n1 measurement_units=% reported_result=107
compound="CCn1cc(SCC(=O)NCC2CCCO2)c2ccccc21 (configuration not stated)" measurement_units=% reported_result=88
compound="Cc1cccc(C(=O)N2CCN(C(=O)c3cccc(C)c3)C(C)C2)c1 (configuration not stated)" measurement_units=% reported_result=110

* * *

Recorded Her2 level values for a group of molecules are listed next.
Biological target: Receptor tyrosine-protein kinase erbB-2 (Homo sapiens) (UniProt P04626)
Sequence (P04626 whole entry, looked up): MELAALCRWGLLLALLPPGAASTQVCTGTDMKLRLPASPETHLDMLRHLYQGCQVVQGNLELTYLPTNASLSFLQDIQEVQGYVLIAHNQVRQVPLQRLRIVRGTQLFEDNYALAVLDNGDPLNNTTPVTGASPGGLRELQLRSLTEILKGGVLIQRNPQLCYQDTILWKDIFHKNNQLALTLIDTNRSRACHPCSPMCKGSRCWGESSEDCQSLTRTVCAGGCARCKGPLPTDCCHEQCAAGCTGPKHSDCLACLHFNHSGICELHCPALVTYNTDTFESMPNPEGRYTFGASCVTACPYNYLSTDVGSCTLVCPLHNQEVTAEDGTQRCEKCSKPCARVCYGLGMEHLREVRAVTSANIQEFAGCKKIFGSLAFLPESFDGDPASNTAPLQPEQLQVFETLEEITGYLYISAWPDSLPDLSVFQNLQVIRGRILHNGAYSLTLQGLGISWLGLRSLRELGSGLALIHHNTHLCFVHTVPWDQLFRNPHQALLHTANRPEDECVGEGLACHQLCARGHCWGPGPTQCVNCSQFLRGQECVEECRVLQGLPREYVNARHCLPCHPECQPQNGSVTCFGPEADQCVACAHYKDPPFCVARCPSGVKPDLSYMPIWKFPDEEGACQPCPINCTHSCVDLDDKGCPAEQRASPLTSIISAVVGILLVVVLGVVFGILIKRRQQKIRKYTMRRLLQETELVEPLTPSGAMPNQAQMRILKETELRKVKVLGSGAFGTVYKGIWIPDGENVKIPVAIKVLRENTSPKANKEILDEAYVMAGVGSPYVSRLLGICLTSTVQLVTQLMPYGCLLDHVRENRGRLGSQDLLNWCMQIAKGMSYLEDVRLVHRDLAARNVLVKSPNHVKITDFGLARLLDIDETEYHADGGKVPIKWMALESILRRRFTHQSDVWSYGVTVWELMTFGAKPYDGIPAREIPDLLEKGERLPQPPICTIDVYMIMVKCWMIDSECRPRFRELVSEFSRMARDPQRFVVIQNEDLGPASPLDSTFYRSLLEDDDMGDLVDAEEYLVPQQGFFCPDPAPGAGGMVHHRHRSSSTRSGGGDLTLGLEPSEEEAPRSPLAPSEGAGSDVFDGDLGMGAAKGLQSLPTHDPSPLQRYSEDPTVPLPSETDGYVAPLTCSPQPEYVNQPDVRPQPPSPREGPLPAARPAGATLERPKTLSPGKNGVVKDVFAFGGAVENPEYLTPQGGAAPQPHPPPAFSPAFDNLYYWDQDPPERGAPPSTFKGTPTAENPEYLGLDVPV
Assay: Her2 expression decrease, cell viability multiplex – SKBR3 breast tumor cells, AlphaScreen, ATP viability, primary screen (AID 461);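 note: lower value means less Her2 protein in the cells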
Details: 18-24 h, at 10 µM, active compounds read low
Measured Property: Her2 level (%)

molecule=Cn1c(=O)c2c(nc(CN3CCN(Cc4ccccc4)CC3)n2Cc2cccc(Cl)c2)n(C)c1=O assayed_system="Receptor tyrosine-protein kinase erbB-2 (Homo sapiens) (UniProt P04626)" reported_result=81.5
molecule="C=C(C)c1cccc(C(C)(C)NC(=O)NCC2CCCO2)c1 (stereo not drawn)" assayed_system="Receptor tyrosine-protein kinase erbB-2 (Homo sapiens) (UniProt P04626)" reported_result=98
molecule="COc1ccc2c(c1OC)C(=O)OC2CC(=O)c1ccc(O)cc1 (stereo not drawn)" assayed_system="Receptor tyrosine-protein kinase erbB-2 (Homo sapiens) (UniProt P04626)" reported_result=111
molecule=COc1ccc(C)cc1NC(=O)C1CCN(S(=O)(=O)c2cccc3cccnc23)CC1 assayed_system="Receptor tyrosine-protein kinase erbB-2 (Homo sapiens) (UniProt P04626)" reported_result=94.5
molecule=O=C(c1cc(C2CC2)on1)N1CCN(C(c2ccccc2)c2ccccc2)CC1 assayed_system="Receptor tyrosine-protein kinase erbB-2 (Homo sapiens) (UniProt P04626)" reported_result=95.5
molecule="Cc1ccc(N(C(=O)C2CCC(=O)N2)C2(C(=O)NC3CCCCC3)CCCCC2)cc1 (stereo not drawn)" assayed_system="Receptor tyrosine-protein kinase erbB-2 (Homo sapiens) (UniProt P04626)" reported_result=99
molecule=Cc1c(NC(=O)c2ccc(Br)o2)c(=O)n(-c2ccccc2)n1C assayed_system="Receptor tyrosine-protein kinase erbB-2 (Homo sapiens) (UniProt P04626)" reported_result=96
molecule="CSc1nc2c(c(=O)n1C)SC(C)C2 (stereo not drawn)" assayed_system="Receptor tyrosine-protein kinase erbB-2 (Homo sapiens) (UniProt P04626)" reported_result=92.5
molecule=Cc1cccnc1-n1c(CCN2C(=O)c3ccccc3C2=O)nc2ccccc2c1=O assayed_system="Receptor tyrosine-protein kinase erbB-2 (Homo sapiens) (UniProt P04626)" reported_result=106
molecule=CCCC(=O)NCCc1cc2c(C)ccc(C)c2[nH]c1=O assayed_system="Receptor tyrosine-protein kinase erbB-2 (Homo sapiens) (UniProt P04626)" reported_result=93
molecule=CCN(CC)C(=O)Oc1ccc(NC(C)=O)cc1 assayed_system="Receptor tyrosine-protein kinase erbB-2 (Homo sapiens) (UniProt P04626)" reported_result=108
molecule=CCOC(=O)c1sc(NC(=O)c2noc3c2CCCC3)c(C(=O)OCC)c1C assayed_system="Receptor tyrosine-protein kinase erbB-2 (Homo sapiens) (UniProt P04626)" reported_result=83
molecule=CC(=O)OCCNc1cc(N2CCN(C)CC2)c2noc3c2c1C(=O)c1ccccc1-3 assayed_system="Receptor tyrosine-protein kinase erbB-2 (Homo sapiens) (UniProt P04626)" reported_result=102
molecule=CCn1c(SCC(=O)Nc2ccc(Cl)cc2)nnc1C1CC1 assayed_system="Receptor tyrosine-protein kinase erbB-2 (Homo sapiens) (UniProt P04626)" reported_result=95.5
molecule=Oc1ccc(-c2n[nH]c(=S)n2Cc2ccccc2)cc1 assayed_system="Receptor tyrosine-protein kinase erbB-2 (Homo sapiens) (UniProt P04626)" reported_result=120
molecule=CCOC(=O)N1CCC(NC(=O)c2ccc(CS(=O)(=O)c3c(Cl)cccc3Cl)o2)CC1 assayed_system="Receptor tyrosine-protein kinase erbB-2 (Homo sapiens) (UniProt P04626)" reported_result=90
molecule="Cc1nc2ccccc2c2oc(C(=O)NCC3COc4ccccc4O3)cc12 (stereo not drawn)" assayed_system="Receptor tyrosine-protein kinase erbB-2 (Homo sapiens) (UniProt P04626)" reported_result=58.5
molecule=Cc1ccc(C)c(S(=O)(=O)n2cnc3ccccc32)c1 assayed_system="Receptor tyrosine-protein kinase erbB-2 (Homo sapiens) (UniProt P04626)" reported_result=87.5
molecule="CC1CCc2nn(CC(=O)Nc3ccc(F)cc3F)cc2C1 (stereo not drawn)" assayed_system="Receptor tyrosine-protein kinase erbB-2 (Homo sapiens) (UniProt P04626)" reported_result=97.5
molecule=NC(=O)c1cccc2c1C(=O)N(C1CCCCC1)C2 assayed_system="Receptor tyrosine-protein kinase erbB-2 (Homo sapiens) (UniProt P04626)" reported_result=99.5
molecule=CN(C(=O)c1ccco1)c1nnc(C23CC4CC(CC(C4)C2)C3)s1 assayed_system="Receptor tyrosine-protein kinase erbB-2 (Homo sapiens) (UniProt P04626)" reported_result=87
molecule="COc1ccc(C2CC(c3cccc(C)c3)n3ncnc3N2)cc1 (stereo not drawn)" assayed_system="Receptor tyrosine-protein kinase erbB-2 (Homo sapiens) (UniProt P04626)" reported_result=89
molecule=CCN(CCNC(=O)C1CCN(S(=O)(=O)c2cccc3cccnc23)CC1)c1ccccc1 assayed_system="Receptor tyrosine-protein kinase erbB-2 (Homo sapiens) (UniProt P04626)" reported_result=84.5

* * *

Assay: reduced viability of SK-BR-3 breast cancer cells – cell-based, 24 h, human, pilot screen (AID 572);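 note: compound exposure lasted between 18 and 24 h rather than exactly 24 h; 100% = carrier-treated control wells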
Conditions: SK-BR-3 viability, CellTiter-Glo luminescence, at 10 µM, active compounds read low
Measured Property: viability (%)

compound=COc1ccc(-n2c(Cc3cccn3C)nnc2SCC(=O)Nc2ccccc2)cc1 measurement_units=% reported_result=88.5
compound="COc1cccc(-c2nc3n(n2)C(c2ccccc2Cl)C(C(N)=O)=C(C)N3)c1 (centres undefined)" measurement_units=% reported_result=91
compound="CCN1CCN(C(CNC(=O)c2ccc3c(c2)OCO3)c2cccnc2)CC1 (centres undefined)" measurement_units=% reported_result=89.5
compound=CCOC(=O)c1[nH]c(C)c(C(=O)Nc2ccc(Cl)cc2)c1C measurement_units=% reported_result=88.5
compound=CCOC(=O)c1csc(NC(=O)C2CCCCC2)n1 measurement_units=% reported_result=81
compound="CCOC(=O)c1ccc(NC(=O)Cn2cc3c(n2)CCC(C)C3)cc1 (centres undefined)" measurement_units=% reported_result=91.5
compound=COc1ccc(S(=O)(=O)N(C)C2CCN(C)CC2)cc1 measurement_units=% reported_result=108
compound=Cc1c(C#N)c2ncnc(-c3ccccc3)c2n1-c1ccccc1 measurement_units=% reported_result=106
compound=CC1CCN(c2oc(-c3ccccc3F)nc2C#N)CC1 measurement_units=% reported_result=82
compound="O=C(NCc1cccs1)C(Cc1ccccc1)n1cccc1 (centres undefined)" measurement_units=% reported_result=114
compound=COc1nnc(-c2ccc(C)c(S(=O)(=O)NCCO)c2)c2ccccc12 measurement_units=% reported_result=93.5
compound="COC(=O)C(C)Sc1nnc2n(-c3cccc(C)c3)c(=O)c3c4c(sc3n12)CCCC4 (centres undefined)" measurement_units=% reported_result=87.5
compound=O=C(Cn1ncc2c1-c1ccccc1OC2)Nc1ccc(Cl)cn1 measurement_units=% reported_result=91.5
compound=CCOC(=O)c1[nH]c(C)c(C(=O)NC)c1C measurement_units=% reported_result=92
compound=CCCc1cc(C(=O)Nc2sc(C)c(C)c2C(=O)OCC)no1 measurement_units=% reported_result=86
compound=Cc1cccc(-n2ncc3c(N4CCC5(CC4)OCCO5)ncnc32)c1 measurement_units=% reported_result=106
compound=CC(=O)Nc1cccc(Oc2nc(C)cc(C)c2C#N)c1 measurement_units=% reported_result=96.5
compound="CC12CN3CCN(CC(C3)C1(O)CN1CCCCC1)C2 (centres undefined)" measurement_units=% reported_result=119
compound=Cc1cccc(Cn2c(SCC(=O)Nc3ccccc3)nc3c2c(=O)[nH]c(=O)n3C)c1 measurement_units=% reported_result=81.5
compound=Cc1ccc(Cn2c(=O)c3ccccc3n3c(CCC(=O)O)nnc23)cc1 measurement_units=% reported_result=107
compound="COc1cccc(NC(=O)C2CCCN(S(=O)(=O)c3cccc4cccnc34)C2)c1 (centres undefined)" measurement_units=% reported_result=106
compound=COCCNC(=O)c1cc(-c2cccs2)on1 measurement_units=% reported_result=97
compound=Oc1ccccc1-c1nnc(COc2ccc(Cl)cc2Cl)o1 measurement_units=% reported_result=96
compound=c1ccn2c(SCc3ccc4c(c3)OCCO4)nnc2c1 measurement_units=% reported_result=108
